B1: library; numbered along this chain (parent)
chain: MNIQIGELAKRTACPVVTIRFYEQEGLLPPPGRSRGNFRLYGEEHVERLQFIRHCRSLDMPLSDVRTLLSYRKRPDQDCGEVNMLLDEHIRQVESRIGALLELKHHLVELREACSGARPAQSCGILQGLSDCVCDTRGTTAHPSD

- Variants of: B1
- Experiment Summary: sfGFP reporter fluorescence (15 h) (µM FITC); higher = higher leak
- Condition Parameters: library round: Round 0; ligand: none
Each entry below carries its reported sfGFP reporter fluorescence.

| Seq String | sfGFP reporter fluorescence |
| --- | --- |
| MNIQIGELAKRTACPVVTIRFYEQEGLLPPPGRSRGNFRLYGEEHVERLQFIRHCRSLDMPLSDVRTLLSYRKRPDQDCGEVNMLLDEHIRQVESRIGALLELKHHLVELDEACSGARPAQSCGILQGLSDCVCDTRGTTAHPSD [R111D] | 0.0585 |
| MNIQIGELAKRTACPVVTIRFYEQEGLLPPPGRSRGNFRLYGEEHVERLQFIRHCRSLDMPLSDVRTLLSYRKRPDQDCGEVNMLLDEHIRQVESRIGALLELKHHLVELREACSGARPAQSCGILQGLSDCVEDTRGTTAHPSD [C134E] | 0.0608 |
| MNYQIGELAKRTACPVVTIRFYEQEGLLPPPGRSRGNFRLYGEEHVERLQFIRHCRSLDMPLSDVRTLLSYRKRPDQDCGEVNMLLDEHIRQVESRIGALLELKHHLVELREACSGARPAQSCGILQGLSDCVCDTRGTTAHPSD [I3Y] | 0.0612 |
| MNIQIGELAKRTACPVVTIRFYEQEGLLPPPGRSRGNFRLYGEEHVERLQFIRHCRSLDMPLSDVRALLSYRKRPDQDCGEVNMLLDEHIRQVESRIGALLELKHHLVELREACSGARPAQSCGILQGLSDCVCDTRGTTAHPSD [T67A] | 0.0605 |
| MNIQIGELAKRTACPVVTIRFYEQEGLLPPPGRSRGNFRLYGEEHVERLQFIRHCRSLDLNLSDVRTLLSYRKRPDQDCGEVNMLLDEHIRQVESRIGALLELKHHCVELREACSGARPAQSCGILQILSDCVCDTRGTTAHPSD [M60L P61N L107C G128I] | 1.87 |
| MNIQIGELAKRTACPVVTIRFYEQEGLLPPPGRSRGNFRLYGEAHVERLQFIRHCRSLDMPLSDVRTLLSYRKRPDQDCGEVNMLLDEHIRQVESRIGALLELKHHLVELREACSGARPAQSCGILQGLSDCVCDTRGTTAHPSD [E44A] | 0.0612 |
| MNIQIGELAKRTACPVVTIRFYEQEGLLPPPGRSRGNFRLYGEEHVERLQFIRHCRSLDLPLSKVRTLLSYRKRPDQDCGEVNMLLDEHIRQVESRIGALLELVHHCVELREACSGARPAQSCGILQGLSDCVCDTRGTTAHPSD [M60L D64K K104V L107C] | 3.73 |
| MNIQIGELAKRTACPVVTIRFYEQEGLLPPPGRSRGNFWLYGEEHVERLQFIRHCRSLDMPLSDVRTLLSYRKRPDQDCGEVNMLLDEHIRQVESRIGALLELKHHLVELREACSGARPAQSCGILQGLSDCVCDTRGTTAHPSD [R39W] | 0.0596 |
| MNIQIGELAKRTACPVVTIRFYEQEGLLPPPGRSRGNFRLPGEEHVERLQFIRHCRSLDMPLSDVRTLLSYRKRPDQDCGEVNMLLDEHIRQVESRIGALLELKHHLVELREACSGARPAQSCGILQGLSDCVCDTRGTTAHPSD [Y41P] | 0.0583 |
| MNIQIGELAKRTACPVVTIRFYEQEGLLPPPGRSRGNFRLYGEEHVERLQFIRHCRSLDMPLSDVRTLLSYRKRPDQDCGEVNMLLDEGIRQVESRIGALLELKHHLVELREACSGARPAQSCGILQGLSDCVCDTRGTTAHPSD [H89G] | 0.0559 |
| MNIQIGELAKRTACPVVTIRFYEQEGALPPPGRSRGNFRLYGEEHVERLQFIRHCRSLDMPLSDVRTLLSYRKRPDQDCGEVNMLLDEHIRQVESRIGALLELKHHLVELREACSGARPAQSCGILQGLSDCVCDTRGTTAHPSD [L27A] | 0.0632 |
| MNIQIGELAKRTACPVVTIRFYEQEGLLPPPGTSRGNFRLYGEEHVERLQFIRHCRSLDMPLSDVRTLLSYRKRPDQDCGEVNMLLDEHIRQVESRIGALLELKHHLVELREACSGARPAQSCGILQGLSDCVCDTRGTTAHPSD [R33T] | 0.0634 |
| MNIQIGELAKRTACPVVTIRFYEQEGLLPPPGRSRGNFRLYGEEHVERLQFIRHCRSLDMPLSDVRTLLSYRKRPDQDCGEVNMLLDEHTRQVESRIGALLELKHHLVELREACSGARPAQSCGILQGLSDCVCDTRGTTAHPSD [I90T] | 0.0608 |
| MNIQIGELAKRTACPVVTIRFYEQEGLAPPPGRSRGNFRLYGEEHVERLQFIRHCRSLDMPLSDVRTLLSYRKRPDQDCGEVNMLLDEHIRQVESRIGALLELKHHLVELREACSGARPAQSCGILQGLSDCVCDTRGTTAHPSD [L28A] | 0.0632 |
| MNIQIGELAKRTACPVVTIRFYEQEGLLPPPGRSRGNFRLYGEEHVERLQFIRHCRSLDMPLSDVRTLLSYRKRPDQDCGEVNMLLDEHIRQVESRIGALLELKHHLVELREACSGARPAQSCGILQGLSDCVSDTRGTTAHPSD [C134S] | 0.066 |
| MNIQIGELAKRTACPVVTIRFYEQEGLLPPPGRSRGNFRLYGEEHVERLQFIRHCRSLDMPLSDVRTLLSYRKRPDQDCGEVNMLLDEHIRQVESRIGALLELKHHLVELQEACSGARPAQSCGILQGLSDCVCDTRGTTAHPSD [R111Q] | 0.0572 |
